# TARGET_OF_ASSAY: human TPOR (Homo sapiens)
# Sequence (P40238 26-635): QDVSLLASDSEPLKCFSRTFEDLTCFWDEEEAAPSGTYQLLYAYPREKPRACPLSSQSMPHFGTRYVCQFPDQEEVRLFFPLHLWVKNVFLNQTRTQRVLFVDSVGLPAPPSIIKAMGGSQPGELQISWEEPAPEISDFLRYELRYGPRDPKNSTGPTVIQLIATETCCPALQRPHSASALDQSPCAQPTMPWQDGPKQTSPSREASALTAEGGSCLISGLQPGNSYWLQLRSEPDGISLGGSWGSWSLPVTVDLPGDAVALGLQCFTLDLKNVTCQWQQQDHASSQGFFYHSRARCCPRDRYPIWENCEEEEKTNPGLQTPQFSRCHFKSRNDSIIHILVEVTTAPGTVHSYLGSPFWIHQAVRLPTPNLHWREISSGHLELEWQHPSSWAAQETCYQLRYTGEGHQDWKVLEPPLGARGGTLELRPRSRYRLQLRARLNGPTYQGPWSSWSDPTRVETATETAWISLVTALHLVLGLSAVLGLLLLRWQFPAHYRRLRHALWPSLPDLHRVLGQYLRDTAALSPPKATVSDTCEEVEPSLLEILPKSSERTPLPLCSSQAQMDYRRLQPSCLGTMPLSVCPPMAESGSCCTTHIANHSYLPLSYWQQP
# TEST: Proliferation effect on BAF3-TPOR cell (CCK-8)
# TEST_PARAMETERS: rate relative to rhTPO positive control
# Description: (1) Plasmid constructs: based on the TPO receptor (TPOR) sequence information from Entrez (Gene ID: 4325, Refseq: NM_005373), dual-site mutation was performed on EX-B0010-M02 plasmid by using QuikChange® Multi Site Directed Mutagenesis Kit (Stratagene). […] (2) 1 mL of cell culture media without IL-3 was added to beat upon them to equality, and the number of a suitable amount of cell suspension was counted after dilution. […] (1) The proliferation rate was calculated as follows: Rate=[(S−B)/(P−B)]*100% […]
# reported EC50; entries follow
Record the value in nM, omitting the unit from your answer.

[ask] Determine its reported EC50: CC1=NN(c2ccc3c(c2)CCCC3)C(=O)/C1=N\Nc1cccc(-c2ccc(C(=O)O)o2)c1O.NCCO.NCCO [Example 7]
[reply] 19

[ask] Tell me measured EC50 for CC1=NN(c2ccc3c(c2)CCC3)C(=O)/C1=N\Nc1cccc(-c2csc(C(=O)O)c2)c1O [Example 19d] please.
[reply] 43

###

Readings of AUC for the listed molecules
# TEST: Pharmacokinetics assay in rats
# Format: in vivo, SD rats
# TEST_PARAMETERS: both sexes, rat, in vivo, po; SD rats, intragastric, 50 mg/Kg (as free acid); read-out: Area Under Curve AUC
Give the number; µg·h/mL is assumed, so skip it.

Below, 2 molecules whose answers are already recorded.
CC1=NN(c2ccc3c(c2)CCC3)C(=O)/C1=N\Nc1cccc(-c2ccc(C(=O)O)o2)c1O.CCNCC.CCNCC [Example 17] :: 138
CC1=NN(c2ccc3c(c2)CCC3)C(=O)/C1=N\Nc1cccc(-c2csc(C(=O)O)c2)c1O.CCNCC.CCNCC [Example 20] :: 275

[ask] Determine from records and report AUC for CC1=NN(c2ccc3c(c2)CCC3)C(=O)/C1=N\Nc1cccc(-c2cccc(C(=O)O)c2)c1O.CCNCC.CCNCC [Example 2]
[reply] 833

###

# TEST: Pharmacokinetics assay in rats
# Type: in vivo, SD rats
# TEST_PARAMETERS: both sexes, SD, rat, plasma, po, 50 mg/kg, SD rats, intragastric, 50 mg/Kg (as free acid); read-out: Clearance CL/F (converted)
RECORDED_METRIC: log10 CL/F (log10 of the value in mL/min/kg)
Recall that a logarithmic scale is used here: each number is log10 of CL/F in mL/min/kg.

CC1=NN(c2ccc3c(c2)CCC3)C(=O)/C1=N\Nc1cccc(-c2ccc(C(=O)O)o2)c1O.NCCO.NCCO :: 1.51
CC1=NN(c2ccc3c(c2)CCC3)C(=O)/C1=N\Nc1cccc(-c2csc(C(=O)O)c2)c1O.NCCO.NCCO :: 1.17
CC1=NN(c2ccc(C)c(C)c2)C(=O)/C1=N\Nc1cccc(-c2cccc(C(=O)O)c2)c1O [Eltrombopag, eltrombopag, reference compound] :: 0.17
CC1=NN(c2ccc3c(c2)CCCC3)C(=O)/C1=N\Nc1cccc(-c2coc(C(=O)O)c2)c1O [Example 22f] :: 1.06
CC1=NN(c2ccc3c(c2)C(C)(C)CC3)C(=O)/C1=N\Nc1cccc(-c2ccc(C(=O)O)o2)c1O.NCCO.NCCO :: 1.61

[ask] Name the recorded log10 CL/F of the item "CC1=NN(c2ccc3c(c2)CCC3)C(=O)/C1=N\Nc1cccc(-c2cccc(C(=O)O)c2)c1O" in your answer.
[reply] 0.01

[ask] Supply measured log10 CL/F of "CC1=NN(c2ccc3c(c2)CCC3)C(=O)/C1=N\Nc1cccc(-c2cccc(C(=O)O)c2)c1O.NCCO.NCCO" in your reply.
[reply] 0.21

[ask] Return log10 CL/F for the following molecule: "CC1=NN(c2ccc3c(c2)CCCC3)C(=O)/C1=N\Nc1cccc(-c2coc(C(=O)O)c2)c1O.NCCO.NCCO"
[reply] 0.60

[ask] Retrieve log10 CL/F measured for "CC1=NN(c2ccc3c(c2)CCCC3)C(=O)/C1=N\Nc1cccc(-c2ccc(C(=O)O)o2)c1O.NCCO.NCCO" and print it.
[reply] 0.47

###

# TEST: Pharmacokinetics assay in rats
# Format: in vivo, SD rats
# TEST_PARAMETERS: both sexes, SD, rat, plasma, po, 50 mg/kg, SD rats, intragastric, 50 mg/Kg (as free acid); read-out: Time to peak Tmax
Each record here notes measured Tmax.
Respond numerically; units are h and should not be typed.

Solved entries:
CC1=NN(c2ccc3c(c2)CCC3)C(=O)/C1=N\Nc1cccc(-c2csc(C(=O)O)c2)c1O.NCCO.NCCO [Example 19] :: 1.81
CC1=NN(c2ccc3c(c2)C(C)(C)CC3)C(=O)/C1=N\Nc1cccc(-c2ccc(C(=O)O)o2)c1O [Example 4h] :: 2.5
CC1=NN(c2ccc3c(c2)CCC3)C(=O)/C1=N\Nc1cccc(-c2ccc(C(=O)O)o2)c1O [Example 16a] :: 2.75
CC1=NN(c2ccc3c(c2)CCCC3)C(=O)/C1=N\Nc1cccc(-c2coc(C(=O)O)c2)c1O [Example 22f] :: 4.25

Okay, now this molecule:
[ask] Give reported Tmax value for CC1=NN(c2ccc3c(c2)CCCC3)C(=O)/C1=N\Nc1cccc(-c2ccc(C(=O)[O-])o2)c1[O-].[Na+].[Na+] [Example 14]
[reply] 5.25

###

Recorded measurements of solubility, one per entry
# TEST: Solubility assay in water, 0.1% hydrochloric acid and methanol
# Assay type: physicochemical
# TEST_PARAMETERS: 0.1% hydrochloric acid
# Procedure: The solubility was characterized by: The term “very soluble” refers to that 1 g (mL) of solute can be dissolved in less than 1 mL of solvent; The term “freely soluble” refers to that 1 g (mL) of solute can be dissolved in from 1 mL to 10 mL, not including 10 mL of solvent; The term “soluble” refers to that 1 g (mL) of solute can be dissolved in from 10 mL to 30 mL, not including 30 mL of solvent; […]

Below, 2 compounds whose answers are already recorded.
CC1=NN(c2ccc3c(c2)CCC3)C(=O)/C1=N\Nc1cccc(-c2cccc(C(=O)O)c2)c1O :: <1 µg/mL
CC1=NN(c2ccc3c(c2)CCC3)C(=O)/C1=N\Nc1cccc(-c2ccc(C(=O)O)o2)c1O :: <1 µg/mL

[ask] Supply measured solubility of "CC1=NN(c2ccc3c(c2)C(C)(C)CC3)C(=O)/C1=N\Nc1cccc(-c2ccc(C(=O)O)o2)c1O" in your reply.
[reply] <1 µg/mL

[ask] Please indicate solubility recorded for "CC1=NN(c2ccc3c(c2)CCC3)C(=O)/C1=N\Nc1cccc(-c2csc(C(=O)O)c2)c1O"
[reply] <1 µg/mL

###

Attribute: Area Under Curve AUC
# TEST: Pharmacokinetics assay in rats
# Assay type: in vivo, SD rats
# TEST_PARAMETERS: SD rats, intragastric, 50 mg/Kg (as free acid); 50 mg/kg
Number in µg·h/mL, nothing else.

Guide cases for Area Under Curve AUC, answers given:
CC1=NN(c2ccc3c(c2)CCC3)C(=O)/C1=N\Nc1cccc(-c2cccc(C(=O)O)c2)c1O [Example 1j] :: 131
CC1=NN(c2ccc3c(c2)C(C)(C)CC3)C(=O)/C1=N\Nc1cccc(-c2ccc(C(=O)O)o2)c1O [Example 4h] :: 9.5
CC1=NN(c2ccc3c(c2)CCC3)C(=O)/C1=N\Nc1cccc(-c2csc(C(=O)O)c2)c1O [Example 19d] :: 36.1
CC1=NN(c2ccc3c(c2)CCCC3)C(=O)/C1=N\Nc1cccc(-c2ccc(C(=O)O)o2)c1O [Example 11] :: 270

[ask] Provide only the value of recorded Area Under Curve AUC for CC1=NN(c2ccc3c(c2)CCC3)C(=O)/C1=N\Nc1cccc(-c2cccc(C(=O)O)c2)c1O [Example 3]
[reply] 842

[ask] Read the entry CC1=NN(c2ccc3c(c2)CCCC3)C(=O)/C1=N\Nc1cccc(-c2ccc(C(=O)O)o2)c1O [Example 8] and write its reported Area Under Curve AUC.
[reply] 352

[ask] Provide only the value of recorded Area Under Curve AUC for CC1=NN(c2ccc3c(c2)C(C)(C)CC3)C(=O)/C1=N\Nc1cccc(-c2ccc(C(=O)O)o2)c1O [Example 5]
[reply] 255

###

# TEST: Pharmacokinetics assay in rats
# Type: in vivo, SD rats
# TEST_PARAMETERS: SD rats, intragastric, 50 mg/Kg (as free acid); 50 mg/kg
# Method: The compounds of the present disclosure were administrated intragastrically to rats to determine the drug concentration in plasma at different time points by HPLC-UV. The pharmacokinetic behavior of the compounds of the present disclosure was studied and evaluated in rats. […] 40 μL of the supernatant was analyzed by HPLC-UV. […]
// boundary case: Half-Life t½ equal to 8 h maps to criterion not met; strictly smaller maps to criterion met

Reference set (3 entries):
CC1=NN(c2ccc3c(c2)CCC3)C(=O)/C1=N\Nc1cccc(-c2cccc(C(=O)O)c2)c1O [Example 3] :: criterion not met
CC1=NN(c2ccc3c(c2)CCCC3)C(=O)/C1=N\Nc1cccc(-c2ccc(C(=O)O)o2)c1O [Example 8] :: criterion not met
CC1=NN(c2ccc3c(c2)CCC3)C(=O)/C1=N\Nc1cccc(-c2ccc(C(=O)O)o2)c1O [Example 18] :: criterion met

[ask] Does CC1=NN(c2ccc3c(c2)CCCC3)C(=O)/C1=N\Nc1cccc(-c2ccc(C(=O)O)o2)c1O [Example 12] have Half-Life t½ strictly under 8 h?
[reply] criterion met

[ask] Take the compound CC1=NN(c2ccc3c(c2)C(C)(C)CC3)C(=O)/C1=N\Nc1cccc(-c2ccc(C(=O)O)o2)c1O [Example 6] and say whether its Half-Life t½ is less than 8 h.
[reply] criterion not met

[ask] Find out if reported Half-Life t½ for CC1=NN(c2ccc3c(c2)CCCC3)C(=O)/C1=N\Nc1cccc(-c2ccc(C(=O)O)o2)c1O [Example 13] is less than 8 h
[reply] criterion met

[ask] Consider CC1=NN(c2ccc3c(c2)CCCC3)C(=O)/C1=N\Nc1cccc(-c2ccc(C(=O)O)o2)c1O [Example 23] . Does its Half-Life t½ lie strictly below 8 h?
[reply] criterion met
